Just for reference, patent US20250361288A1 is where these values come from.

Target: T1, human HVEM extracellular domain fused with an Fc fragment at the C-terminus (human, UniProt Q92956 39-202)
T1 construct: extracellular domain; Bought; also called hHVEM; not shown: Fc fragment at the C-terminus
T1 sequence (looked up): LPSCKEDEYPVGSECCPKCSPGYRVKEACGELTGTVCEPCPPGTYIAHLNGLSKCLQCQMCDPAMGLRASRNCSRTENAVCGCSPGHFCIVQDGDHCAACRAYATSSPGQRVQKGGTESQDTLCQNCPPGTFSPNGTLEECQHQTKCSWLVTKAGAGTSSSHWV
Test: phage ELISA

binder: LIGHT-78 (ligand, Printed mutations: Q117N, S160G, T161S, L220S, L227T; Soluble protein carries an N-terminal His tag) DGPAGSWEQLIQERRSHEVNPAAHLTGANSSLTGSGGPLLWETNLGLAFLRGLSYHDGALVVTKAGYYYIYSKVQLGGVGCPLGLAGSITHGLYKRTPRYPEELELLVSQQSPCGRATSSSRVWWDSSFLGGVVHLEAGEKVVVRVSDERLVRTRDGTRSYFGAFMV
binding result: binds

binder: LIGHT-72 (ligand, Printed mutations: Q117N, S160G, L220S, L227T; Soluble protein carries an N-terminal His tag) DGPAGSWEQLIQERRSHEVNPAAHLTGANSSLTGSGGPLLWETNLGLAFLRGLSYHDGALVVTKAGYYYIYSKVQLGGVGCPLGLAGTITHGLYKRTPRYPEELELLVSQQSPCGRATSSSRVWWDSSFLGGVVHLEAGEKVVVRVSDERLVRTRDGTRSYFGAFMV
binding result: binds

binder: LIGHT-77 (ligand, Printed mutations: Q117E, S160G, T161P, L220S, L227T; Soluble protein carries an N-terminal His tag) DGPAGSWEQLIQERRSHEVNPAAHLTGANSSLTGSGGPLLWETELGLAFLRGLSYHDGALVVTKAGYYYIYSKVQLGGVGCPLGLAGPITHGLYKRTPRYPEELELLVSQQSPCGRATSSSRVWWDSSFLGGVVHLEAGEKVVVRVSDERLVRTRDGTRSYFGAFMV
binding result: binds
